test: Stability test against a mouse liver homogenate
Format: in vitro ADME, ICR-strain mice
reportedConditions: mouse liver homogenate supernatant, pH 7.2, 37° C., unchanged product remaining by TLC/chromatoscanner (283 nm), read-out: Residual activity ratio (%)
The reader will find reported remaining at 1 h values listed item by item below.
Could you give me the number in %? Just the number is fine.

Query: Look up remaining at 1 h of CCC1OC(=O)CC(O)C(C)C(OC2CC(N(C)C)C(OC3CC(C)(O)C(OC(=O)CC(C)C)C(C)O3)C(C)O2)C(CC=O)CC(C)C(=O)/C=C/C2(C)OC2C1COC1OC(C)C(O)C(OC)C1OC (stereo not drawn) [Control compound (1), 4"-O-isovaleryl angola-mycin, reference compound] and report it.
Reply: 55

Query: Look up remaining at 1 h of CCC1OC(=O)CC(O)C(C)C(OC2CC(N(C)C)C(OC3CC(C)(O)C(OC(=O)Cc4ccc(OC)cc4)C(C)O3)C(C)O2)C(CC=O)CC(C)C(=O)/C=C/C2(C)OC2C1COC1OC(C)C(O)C(OC)C1OC (stereo not drawn) [Compound (2), 4"-O-(p-methoxyphenylacetyl)-angolamycin] and report it.
Reply: 95

Could you now consider this next compound?
Query: Look up remaining at 1 h of CCC1OC(=O)CC(O)C(C)C(OC2CC(N(C)C)C(OC3CC(C)(O)C(OC(=O)Cc4ccc(C(C)=O)cc4)C(C)O3)C(C)O2)C(CC=O)CC(C)C(=O)/C=C/C2(C)OC2C1COC1OC(C)C(O)C(OC)C1OC (stereo not drawn) [Compound (1), 4"-O-(p-acetylphenylacetyl)-angolamycin] and report it.
Reply: 94
